Assignment: determine reported viability at 48 h, 10 µM for the given compounds.
# Assay Procedure: MTT cell viability assay HT-29
# Type: cell-based, human
# Settings: human, HT-29 cells, 10 µM, mean ± SD
Give bare numbers, in %.

Previously resolved entries follow.
>>> val("CC(C)c1onc(-c2ccc(F)cc2)c1-c1ccnc(NC(=O)c2cccn2C[C@H]2NC[C@H](O)[C@@H]2O)c1 [29c]")
78
>>> val("COc1ccc(-c2cc(C(=O)Nc3cc(-c4c(-c5ccc(F)cc5)noc4C(C)C)ccn3)n(C)c2)c(OC)c1 [28b]")
59

Kindly review the next compound as well.
Lab note: COc1ccc(-c2cc(C(=O)Nc3cc(-c4c(-c5ccc(F)cc5)noc4C(C)C)ccn3)n(C)c2)cc1 [28a] gave viability at 48 h, 10 µM of 98

---

# Target Or Test System: human GST-CK1ε (Homo sapiens)
# Construct: purchased Invitrogen PV3500
# Sequence (P49674 whole entry): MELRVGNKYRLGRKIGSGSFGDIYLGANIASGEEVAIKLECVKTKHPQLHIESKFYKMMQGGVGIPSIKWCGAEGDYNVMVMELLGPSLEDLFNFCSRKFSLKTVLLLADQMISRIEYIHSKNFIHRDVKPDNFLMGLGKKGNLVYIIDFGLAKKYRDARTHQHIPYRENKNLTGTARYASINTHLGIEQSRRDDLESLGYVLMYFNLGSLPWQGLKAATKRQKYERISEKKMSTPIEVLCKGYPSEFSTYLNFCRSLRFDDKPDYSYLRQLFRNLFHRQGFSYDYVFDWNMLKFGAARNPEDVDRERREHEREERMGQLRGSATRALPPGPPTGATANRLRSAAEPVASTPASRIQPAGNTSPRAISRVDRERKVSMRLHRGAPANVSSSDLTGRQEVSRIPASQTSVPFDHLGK
# Assay Procedure: in-vitro kinase assay CK1ε
# Type: biochemical
# Settings: 10 µM compound, 10 µM ATP, mean ± SD, n = 3; read-out: CK1ε Residual Activity [%] at 10 µM ± SD
Decision: remaining activity at 10 µM beneath 20% gives 1; remaining activity at 10 µM meeting or exceeding 20% gives -1.

>>> answer_label("COc1ccc(-c2cc(C(=O)Nc3cc(-c4c(-c5ccc(F)cc5)noc4C(C)C)ccn3)n(C)c2)c(OC)c1 [28b]")
-1
>>> answer_label("COc1ccc(-c2cc(C(=O)Nc3cc(-c4c(-c5ccc(F)cc5)noc4C(C)C)ccn3)n(CC3NCC(O)C3O)c2)cc1 (centres unmarked) [29d]")
1
>>> answer_label("COc1ccc(-c2cc(C(=O)Nc3cc(-c4c(-c5ccc(F)cc5)noc4C(C)C)ccn3)n(C)c2)cc1 [28a]")
-1
>>> answer_label("COc1ccc(-c2cc(C(=O)Nc3cc(-c4c(-c5ccc(F)cc5)noc4C(C)C)ccn3)n(C[C@H]3NC[C@H](O)[C@@H]3O)c2)c(OC)c1 [29f]")
1

Let us examine a further case.
Dear reviewer, please state whether CC(C)c1onc(-c2ccc(F)cc2)c1-c1ccnc(NC(=O)c2cccn2C[C@H]2NC[C@H](O)[C@@H]2O)c1 [29c] has remaining activity at 10 µM strictly beneath 20%. 1

---

# Target Or Test System: human CK1δ transcription variant 1 (Homo sapiens)
# Construct: made in house; own knowledge
# Assay Procedure: in-vitro kinase assay CK1δ
# Format: biochemical
# Settings: 10 µM ATP, mean ± SD, n = 3
Readout Name: IC50 (µM)
Answers are plain numbers, in µM.

>>> val("COc1ccc(-c2cc(C(=O)Nc3cc(-c4c(-c5ccc(F)cc5)noc4C(C)C)ccn3)n(CC3NCC(O)C3O)c2)cc1 (stereo not drawn) [29e]")
0.047

Field: IC50. Fill in for each record below.
1. COc1ccc(-c2cc(C(=O)Nc3cc(-c4c(-c5ccc(F)cc5)noc4C(C)C)ccn3)n3c2CN2C[C@@H](O)[C@@H](O)[C@@H]2C3)cc1 [31b]
2. COc1ccc(-c2cc(C(=O)Nc3cc(-c4c(-c5ccc(F)cc5)noc4C(C)C)ccn3)n3c2CN2C[C@H](O)[C@H](O)[C@H]2C3)cc1 [31a]
3. CC(C)c1onc(-c2ccc(F)cc2)c1-c1ccnc(NC(=O)c2cccn2C[C@H]2NC[C@H](O)[C@@H]2O)c1 [29c]

[0.024, 0.011, 0.45]

Field: IC50. Fill in for each record below.
1. COc1ccc(-c2cc(C(=O)Nc3cc(-c4c(-c5ccc(F)cc5)noc4C(C)C)ccn3)n(CC3NCC(O)C3O)c2)cc1 (stereo not drawn) [29d]
2. COc1ccc(-c2cc(C(=O)Nc3cc(-c4c(-c5ccc(F)cc5)noc4C(C)C)ccn3)n(C[C@H]3NC[C@H](O)[C@@H]3O)c2)c(OC)c1 [29f]

0.038
0.037
